# test target: dopamine transporter (UniProt P23977)
# Format: binding
# reported conditions: read-out: DA IC50 for inhibition of radioligand binding; DA=[3H]WIN 35,428
metric: pIC50
# pIC50 = -log10(concentration in molar units)

> print(dat)
                                   molecule  metric  reported.result
1  C=Cc1ccc(C2CC3CCC(N3)C2C(=O)OC)cc1 (centres unmarked)   pIC50             8.76
2  CN1C2CCC1C(CO)C(c1ccc(I)cc1)C2 (centres unmarked)   pIC50             8.66
3  C/C=C/c1ccc(C2CC3CCC(C2C(=O)OC)N3C)cc1 (centres unmarked)   pIC50             8.28
4  COC(=O)C1C2CCC(C[C@H]1c1ccccc1)N2C (some centres unmarked)   pIC50             7.00

Provide only the value of recorded pIC50 for `COC(=O)[C@H]1[C@@H](c2ccc(C#Cc3ccccc3)cc2)C[C@@H]2CC[C@H]1N2C`
8.43

----------
# test target: serotonin transporter (Rattus norvegicus, UniProt P31652)
# Construct: from tissue
# Sequence (P31652 whole entry): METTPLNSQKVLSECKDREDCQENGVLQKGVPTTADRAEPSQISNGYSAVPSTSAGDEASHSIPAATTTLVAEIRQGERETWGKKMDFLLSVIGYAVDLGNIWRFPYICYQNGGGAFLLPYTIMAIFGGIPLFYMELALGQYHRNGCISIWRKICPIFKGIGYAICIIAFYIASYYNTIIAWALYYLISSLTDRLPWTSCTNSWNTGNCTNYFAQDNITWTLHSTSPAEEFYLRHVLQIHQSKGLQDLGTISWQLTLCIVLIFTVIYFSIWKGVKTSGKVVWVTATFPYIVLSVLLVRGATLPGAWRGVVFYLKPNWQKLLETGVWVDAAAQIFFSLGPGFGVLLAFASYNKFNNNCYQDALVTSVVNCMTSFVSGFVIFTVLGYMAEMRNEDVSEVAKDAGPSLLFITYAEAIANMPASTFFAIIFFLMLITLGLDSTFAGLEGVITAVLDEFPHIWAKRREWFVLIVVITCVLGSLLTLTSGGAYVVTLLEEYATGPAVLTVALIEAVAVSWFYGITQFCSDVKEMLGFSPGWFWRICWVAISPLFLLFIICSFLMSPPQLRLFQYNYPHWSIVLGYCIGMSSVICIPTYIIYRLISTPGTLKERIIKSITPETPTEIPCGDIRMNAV
# assay text: Inhibition of [3H]paroxetine radioligand binding at the serotonin transporter
# reported conditions: IC50 5-HT [3H]-paroxetine, Table IV
Where a name gives a salt, the structure may show the parent alone.
# MET = IC50 below 100 nM (exclusive); NOT MET = IC50 at/above 100 nM

Some solved entries appear below for comparison.
> print(dat)
                                   molecule                               test.target  qualitative.label
1  Cc1ccc(C2CC3CCC(C2CN(C)C)N3C)cc1 (stereo not drawn)  serotonin transporter (Rattus norvegicus, UniProt P31652)            NOT MET
2  CC(=O)OC[C@@H]1C2CCC(C[C@@H]1c1ccc(Cl)cc1)N2C (stereo partly drawn)  serotonin transporter (Rattus norvegicus, UniProt P31652)            NOT MET

Problem: For the molecule C=C(C)C1C(c2ccc(Cl)cc2)CC2CCC1N2C (stereo not drawn) , is IC50 under 100 nM?
MET

Problem: For the molecule `CN1[C@H]2CC[C@@H]1[C@@H](CO)[C@@H](c1ccc(F)cc1)C2` , is IC50 under 100 nM?
NOT MET

Problem: For the molecule Cc1ccc([C@H]2C[C@@H]3CC[C@H]([C@H]2C#N)N3C)cc1 [RTI-158, Hydrochloride] , is IC50 under 100 nM?
NOT MET

----------
Where a name gives a salt, the structure may show the parent alone.
metric: melting point

> print(dat)
                                   molecule  reported.result
1  CN1[C@H]2CC[C@@H]1[C@@H](c1cc(-c3ccccc3)no1)[C@@H](c1ccc(Cl)cc1)C2 (as salt: hydrochloride)           287 °C
2  Cc1cc([C@H]2[C@@H](c3ccc(Cl)cc3)C[C@@H]3CC[C@H]2N3C)on1 (as salt: hydrochloride)    235 °C (dec.)
3  CN1[C@H]2CC[C@@H]1[C@@H](C#N)[C@@H](c1ccc(Cl)cc1)C2  > 220 °C (dec.)
4  Cc1ccc([C@H]2C[C@@H]3CC[C@H]([C@H]2c2nn[nH]n2)N3C)cc1 (as salt: hydrochloride)  < 212 °C (dec.)

Moving on to another molecule below.
Provide only the value of recorded melting point for CN1C2CCC1C(c1nnc(-c3ccccc3)s1)C(c1ccc(Cl)cc1)C2 (centres unmarked) (as salt: hydrochloride)
165 to 170 °C
